system: antibodies in sera from SARS patients (sera 1a, 1b, 2, 6, 37, 62, London, SARS-yellow, SARS-green); assay type: binding, human; set-up: unit not given here
Mark NOT MET for Binding of serum 37 to linear peptides of protein M of SARS-CoV Urbani values under 0.6, and MET for everything at or above.

>  <residue sequence>
TDSGFAAYNRYRIGN

>  <category label>
NOT MET

$$$$
>  <residue sequence>
WSFNPETNILLNVPL

>  <category label>
MET

$$$$
>  <residue sequence>
VTRPLMESELVIGAV

>  <category label>
MET

$$$$
>  <residue sequence>
ATSRTLSYYKLGASQ

>  <category label>
MET

$$$$
>  <residue sequence>
SNRNRFLYIIKLVFL

>  <category label>
NOT MET

$$$$
>  <residue sequence>
IGFLFLAWIMLLQFA

>  <category label>
NOT MET

$$$$

* * *

tested on: antibodies in sera from SARS patients (sera 1a, 1b, 2, 6, 37, 62, London, SARS-yellow, SARS-green); assay type: binding, human
Measured Binding of serum SARS-yellow to looped/cyclic peptides of protein M of SARS-CoV Urbani, listed per entry for reference.
parameter: Binding of serum SARS-yellow to looped/cyclic peptides of protein M of SARS-CoV Urbani

>  <residue sequence>
VATSRTLSYYKLGAS

>  <result>
0.6

$$$$
>  <residue sequence>
WSFNPETNILLNVPL

>  <result>
0.8

$$$$
>  <residue sequence>
FRLFARTRSMWSFNP

>  <result>
0.5

$$$$
>  <residue sequence>
RINWVTGGIAIAMAC

>  <result>
0.7

$$$$
>  <residue sequence>
IKLVFLWLLWPVTLA

>  <result>
0.5

$$$$
>  <residue sequence>
PLMESELVIGAVIIR

>  <result>
0.7

$$$$
>  <residue sequence>
ETNILLNVPLRGTIV

>  <result>
0.5

$$$$

* * *

# key: entry, value: Binding of serum 1a to looped/cyclic peptides of protein X1 of SARS-CoV Urbani
test system: antibodies in sera from SARS patients (sera 1a, 1b, 2, 6, 37, 62, London, SARS-yellow, SARS-green); type: binding, human
parameter: Binding of serum 1a to looped/cyclic peptides of protein X1 of SARS-CoV Urbani

>  <residue sequence>
TDTIVVTEGDGISTP

>  <result>
0.4

$$$$
>  <residue sequence>
VYYQLESTQITTDTG

>  <result>
0.4

$$$$
>  <residue sequence>
LESTQITTDTGIENA

>  <result>
0.4

$$$$

* * *

system: antibodies in sera from SARS patients (sera 1a, 1b, 2, 6, 37, 62, London, SARS-yellow, SARS-green); type: binding, human; set-up: unit not given here
parameter: Binding of serum London to looped/cyclic peptides of protein N of SARS-CoV Urbani

>  <residue sequence>
NQRSAPRITFGGPTD

>  <result>
0.4

$$$$
>  <residue sequence>
ELSPRWYFYYLGTGP

>  <result>
0.4

$$$$
>  <residue sequence>
QFAPSASAFFGMSRI

>  <result>
0.4

$$$$
>  <residue sequence>
SQASSRSSSRSRGNS

>  <result>
0.4

$$$$
>  <residue sequence>
AEGSRGGSQASSRSS

>  <result>
0.4

$$$$
>  <residue sequence>
LNTPKDHIGTRNPNN

>  <result>
0.5

$$$$
>  <residue sequence>
SRQLQNSMSGASADS

>  <result>
0.2

$$$$
>  <residue sequence>
SSSRSRGNSRNSTPG

>  <result>
0.3

$$$$
>  <residue sequence>
LNQLESKVSGKGQQQ

>  <result>
0.5

$$$$
>  <residue sequence>
ELRFPRGQGVPINTN

>  <result>
0.5

$$$$
>  <residue sequence>
AQPLPQRQKKQPTVT

>  <result>
0.2

$$$$
>  <residue sequence>
MDDFSRQLQNSMSGA

>  <result>
0.3

$$$$
>  <residue sequence>
RLNQLESKVSGKGQQ

>  <result>
0.4

$$$$
>  <residue sequence>
TALTQHGKEELRFPR

>  <result>
0.6

$$$$

* * *

tested on: antibodies in sera from SARS patients (sera 1a, 1b, 2, 6, 37, 62, London, SARS-yellow, SARS-green); assay type: binding, human; set-up: unit not given here
Threshold rule: Binding of serum 6 to looped/cyclic peptides of protein N of SARS-CoV Urbani greater than or equal to 0.2 is Fulfilled; below that, Not fulfilled.

>  <residue sequence>
ELRFPRGQGVPINTN

>  <category label>
Fulfilled

$$$$
>  <residue sequence>
TKQYNVTQAFGRRGP

>  <category label>
Fulfilled

$$$$
>  <residue sequence>
DHIGTRNPNNNAATV

>  <category label>
Fulfilled

$$$$
>  <residue sequence>
TASWFTALTQHGKEE

>  <category label>
Not fulfilled

$$$$
>  <residue sequence>
QRRPQGLPNNTASWF

>  <category label>
Fulfilled

$$$$
>  <residue sequence>
KSAAEASKKPRQKRT

>  <category label>
Not fulfilled

$$$$
>  <residue sequence>
DGKMKELSPRWYFYY

>  <category label>
Fulfilled

$$$$
>  <residue sequence>
QTQGNFGDQDLIRQG

>  <category label>
Fulfilled

$$$$
>  <residue sequence>
GGSQASSRSSSRSRG

>  <category label>
Fulfilled

$$$$
>  <residue sequence>
GQQQQGQTVTKKSAA

>  <category label>
Not fulfilled

$$$$
>  <residue sequence>
QPTVTLLPAADMDDF

>  <category label>
Not fulfilled

$$$$
>  <residue sequence>
RNPNNNAATVLQLPQ

>  <category label>
Fulfilled

$$$$

* * *

test system: antibodies in sera from SARS patients (sera 1a, 1b, 2, 6, 37, 62, London, SARS-yellow, SARS-green); type: binding, human
Below, each entry is listed with its recorded Binding of serum 62 to linear peptide (PEPSCAN-ELISA).
parameter: Binding of serum 62 to linear peptide (PEPSCAN-ELISA)

>  <residue sequence>
RNSTPGSSRGNSPAR

>  <result>
0.7

$$$$
>  <residue sequence>
RSRGNSRNSTPGSSR

>  <result>
0.6

$$$$
>  <residue sequence>
ASSRSSSRSRGNSRN

>  <result>
0.5

$$$$
>  <residue sequence>
SRNSTPGSSRGNSPA

>  <result>
0.9

$$$$
>  <residue sequence>
GGETALALLLLDRLN

>  <result>
0.6

$$$$

* * *

tested on: antibodies in sera from SARS patients (sera 1a, 1b, 2, 6, 37, 62, London, SARS-yellow, SARS-green); type: binding, human
Entries and their measured Binding of serum SARS-yellow to linear peptides of protein N of SARS-CoV Urbani follow.
parameter: Binding of serum SARS-yellow to linear peptides of protein N of SARS-CoV Urbani

>  <residue sequence>
QGLPNNTASWFTALT

>  <result>
0.6

$$$$
>  <residue sequence>
RRPQGLPNNTASWFT

>  <result>
0.6

$$$$
>  <residue sequence>
LQNSMSGASADSTQA

>  <result>
0.6

$$$$
>  <residue sequence>
LRFPRGQGVPINTNS

>  <result>
0.5

$$$$
>  <residue sequence>
VRGGDGKMKELSPRW

>  <result>
0.7

$$$$
>  <residue sequence>
KQPTVTLLPAADMDD

>  <result>
1.1

$$$$
>  <residue sequence>
NKHIDAYKTFPPTEP

>  <result>
0.6

$$$$
>  <residue sequence>
NTASWFTALTQHGKE

>  <result>
0.5

$$$$
>  <residue sequence>
AYKTFPPTEPKKDKK

>  <result>
0.7

$$$$
>  <residue sequence>
AFFGMSRIGMEVTPS

>  <result>
0.5

$$$$
>  <residue sequence>
AQFAPSASAFFGMSR

>  <result>
0.6

$$$$
>  <residue sequence>
TEGALNTPKDHIGTR

>  <result>
0.6

$$$$
>  <residue sequence>
AADMDDFSRQLQNSM

>  <result>
0.7

$$$$
>  <residue sequence>
FKDNVILLNKHIDAY

>  <result>
0.7

$$$$
>  <residue sequence>
RGGDGKMKELSPRWY

>  <result>
0.6

$$$$
>  <residue sequence>
QIGYYRRATRRVRGG

>  <result>
0.6

$$$$
>  <residue sequence>
KDKKKKTDEAQPLPQ

>  <result>
0.5

$$$$
>  <residue sequence>
TRRVRGGDGKMKELS

>  <result>
0.7

$$$$
>  <residue sequence>
QLQNSMSGASADSTQ

>  <result>
0.6

$$$$

* * *

tested on: antibodies in sera from SARS patients (sera 1a, 1b, 2, 6, 37, 62, London, SARS-yellow, SARS-green); assay type: binding, human
parameter: Binding of serum 2 to linear peptides of protein M of SARS-CoV Urbani

>  <residue sequence>
FRLFARTRSMWSFNP

>  <result>
0.6

$$$$
>  <residue sequence>
ARTRSMWSFNPETNI

>  <result>
0.6

$$$$
>  <residue sequence>
VATSRTLSYYKLGAS

>  <result>
0.6

$$$$
>  <residue sequence>
LFLAWIMLLQFAYSN

>  <result>
0.3

$$$$
>  <residue sequence>
QWNLVIGFLFLAWIM

>  <result>
0.6

$$$$
>  <residue sequence>
AYSNRNRFLYIIKLV

>  <result>
0.6

$$$$
>  <residue sequence>
RPLMESELVIGAVII

>  <result>
0.7

$$$$
>  <residue sequence>
ETNILLNVPLRGTIV

>  <result>
0.5

$$$$
>  <residue sequence>
LEQWNLVIGFLFLAW

>  <result>
0.6

$$$$
>  <residue sequence>
AYNRYRIGNYKLNTD

>  <result>
0.3

$$$$
>  <residue sequence>
ACIVGLMWLSYFVAS

>  <result>
0.5

$$$$
>  <residue sequence>
DSGFAAYNRYRIGNY

>  <result>
0.4

$$$$
>  <residue sequence>
NILLNVPLRGTIVTR

>  <result>
0.8

$$$$
>  <residue sequence>
AVYRINWVTGGIAIA

>  <result>
0.6

$$$$
